Documented minimal effective concentration across a set of compounds
tested on: recombinant guanylate cyclase reporter cell line; assay: Action on recombinant guanylate cyclase reporter cell line (MEC); type: cell-based; settings: in some cases mean values obtained from individual determinations
property: minimal effective concentration (µM)

[[record]]
compound = "Cc1nc2c(OCc3c(F)cccc3F)cccn2c1C(=O)N[C@@H](CO)C(C)(C)C"
property = "minimal effective concentration"
uom = "µM"
result_value = 0.3

[[record]]
compound = "CC[C@H](CO)NC(=O)c1c(C)nc2c(OCc3cccc(F)c3F)cccn12"
property = "minimal effective concentration"
uom = "µM"
result_value = 0.3

[[record]]
compound = "Cc1nc2c(OCc3c(F)cccc3F)cccn2c1C(=O)N[C@@H]1CCC[C@@H]1O"
property = "minimal effective concentration"
uom = "µM"
result_value = 0.3

[[record]]
compound = "Cc1nc2c(OCc3c(F)cccc3F)cccn2c1C(=O)NCCC(C)(C)O"
property = "minimal effective concentration"
uom = "µM"
result_value = 0.3

[[record]]
compound = "CCCC[C@H](CO)NC(=O)c1c(C2CC2)nc2c(OCc3c(F)cccc3F)cccn12"
property = "minimal effective concentration"
uom = "µM"
result_value = 0.3

[[record]]
compound = "Cc1nc2c(OCc3c(F)cccc3F)cccn2c1C(=O)NC(c1ccc(F)cc1)C(C)(C)O (racemic)"
property = "minimal effective concentration"
uom = "µM"
result_value = 0.3

